# experimental.system: PDE1B (Homo sapiens (Human))
# assay.notes: PDE1 inhibition assay (PDE1B)
# Format: biochemical
# setup.conditions: 15 nM tritium labelled cAMP, 1 hr at room temperature, SPA beads; read-out: PDE1B, IC50
In this section we review reported pIC50 values for a set of compounds.
In simple prose, pIC50 is minus the logarithm base ten of a concentration in moles per litre.

# annotated cases, reported pIC50 shown
{"columns": ["compound", "numeric.readout"],
 "data": [
  ["Cc1nn(C(C)C)c2c(NCc3cnn(C)c3)cc(-c3nccs3)nc12 [Example 147]", 8.68],
  ["CCOc1ncccc1-c1cc(NCc2cnn(C)c2)c2c(cnn2C2COC2)n1 [Example 14]", 7.42],
  ["Cc1nn(C(C)C)c2c(NCc3cnn(C)c3)cc(-n3cncn3)nc12 [Example 185]", 7.62],
  ["CCOc1ncccc1-c1cc(NCc2csc(C)c2)c2c(n1)c(C)nn2C(C)C [Example 34]", 8.74],
  ["CCOc1ncccc1-c1cc(NCc2cccnc2OC)c2c(n1)c(C)nn2C(C)C [Example 86]", 9.44]
]}

Ask: What value of pIC50 has been reported for the following compound? CCOc1ncccc1-c1cc(NCc2nnc(C)o2)c2c(n1)c(C)nn2C(C)C [Example 1]
Reply: 8.80

Ask: What value of pIC50 has been reported for the following compound? CCNc1ncccc1-c1cc(NCc2cnn(C)c2)c2c(n1)c(C)nn2C(C)C [Example 79]
Reply: 7.51

Ask: What value of pIC50 has been reported for the following compound? Cc1nn(C(C)C)c2c(NCc3cnn(C)c3)cc(-c3cccnc3N(C)C)nc12 [Example 201]
Reply: 6.64

Ask: What value of pIC50 has been reported for the following compound? Cc1nn(C(C)C)c2c(NCc3cnn(C)c3)cc(-c3cnn(C)c3C)nc12 [Example 66]
Reply: 7.23

----------
In this section we review reported pIC50 values for a set of compounds.
# experimental.system: PDE1C (Homo sapiens (Human), UniProt Q14123)
# Sequence (Q14123 whole entry): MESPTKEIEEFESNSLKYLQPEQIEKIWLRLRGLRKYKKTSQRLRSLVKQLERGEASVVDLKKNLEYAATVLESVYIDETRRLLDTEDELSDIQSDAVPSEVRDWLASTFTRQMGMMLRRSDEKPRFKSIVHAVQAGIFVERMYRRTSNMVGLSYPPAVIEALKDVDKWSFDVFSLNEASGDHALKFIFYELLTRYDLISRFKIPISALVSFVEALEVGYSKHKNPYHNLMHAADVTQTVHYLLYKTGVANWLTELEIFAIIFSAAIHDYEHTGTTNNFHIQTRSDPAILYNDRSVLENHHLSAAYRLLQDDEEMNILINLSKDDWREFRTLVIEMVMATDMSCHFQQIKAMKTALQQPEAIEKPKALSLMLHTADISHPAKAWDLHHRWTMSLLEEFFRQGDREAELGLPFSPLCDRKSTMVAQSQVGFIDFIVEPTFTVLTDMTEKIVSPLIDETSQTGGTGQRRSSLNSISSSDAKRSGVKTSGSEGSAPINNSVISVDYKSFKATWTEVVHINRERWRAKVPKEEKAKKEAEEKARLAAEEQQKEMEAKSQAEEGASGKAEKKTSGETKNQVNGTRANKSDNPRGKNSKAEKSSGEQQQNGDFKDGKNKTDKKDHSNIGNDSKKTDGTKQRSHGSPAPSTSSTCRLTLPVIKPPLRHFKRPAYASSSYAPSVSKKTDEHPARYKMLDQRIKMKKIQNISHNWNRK
# assay.notes: biochemical
# Format: biochemical
# setup.conditions: 15 nM tritium labelled cAMP, 1 hr at room temperature, SPA beads
In simple prose, pIC50 is minus the logarithm base ten of a concentration in moles per litre.

# annotated cases, reported pIC50 shown
{"columns": ["compound", "pIC50"],
 "data": [
  ["CCOc1ncccc1-c1cc(NCc2cncc(OC)c2)c2c(n1)c(C)nn2C(C)C", 8.41],
  ["CCOc1ncccc1-c1cc(NCc2cnn(C)c2)c2c(cnn2C)n1", 5.74],
  ["Cc1cnc(-c2cc(NCc3cnn(C)c3)c3c(n2)c(C)nn3C(C)C)s1", 7.07]
]}

# ---- query compound ----
Ask: What value of pIC50 has been reported for the following compound? `CCOc1ncccc1-c1cc(CNc2ncn(C)n2)c2c(n1)c(C)nn2C(C)C`
Reply: 7.30

----------
# experimental.system: PDE1B (Homo sapiens (Human), UniProt Q01064)
# Sequence (Q01064 whole entry): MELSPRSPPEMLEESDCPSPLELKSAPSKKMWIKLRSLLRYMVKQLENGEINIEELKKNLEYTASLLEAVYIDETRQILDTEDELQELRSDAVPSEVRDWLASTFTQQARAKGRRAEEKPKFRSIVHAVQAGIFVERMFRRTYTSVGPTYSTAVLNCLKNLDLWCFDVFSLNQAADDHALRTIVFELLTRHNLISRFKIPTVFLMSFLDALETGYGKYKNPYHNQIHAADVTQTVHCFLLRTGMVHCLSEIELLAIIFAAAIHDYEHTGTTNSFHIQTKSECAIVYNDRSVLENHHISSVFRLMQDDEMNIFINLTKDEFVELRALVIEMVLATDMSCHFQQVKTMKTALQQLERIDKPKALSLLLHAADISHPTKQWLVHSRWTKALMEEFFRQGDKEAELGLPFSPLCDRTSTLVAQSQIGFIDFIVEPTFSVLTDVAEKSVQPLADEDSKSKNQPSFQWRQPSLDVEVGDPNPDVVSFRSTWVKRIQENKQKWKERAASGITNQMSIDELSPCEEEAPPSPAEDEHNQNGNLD
# assay.notes: PDE1 inhibition assay (PDE1B)
# Assay type: biochemical
# setup.conditions: 15 nM tritium labelled cAMP, 1 hr at room temperature, SPA beads; read-out: PDE1B, IC50
In this section we review reported pIC50 values for a set of compounds.
In simple prose, pIC50 is minus the logarithm base ten of a concentration in moles per litre.

# annotated cases, reported pIC50 shown
{"columns": ["compound", "pIC50"],
 "data": [
  ["Cc1nn(C(C)C)c2c(NCc3cnn(C)c3)cc(-c3cnnn3C)nc12", 7.07],
  ["CCOc1ncccc1-c1cc(NCc2ccccc2OC)c2c(n1)c(C)nn2C(C)C", 8.29],
  ["COc1ccccc1-c1cc(NCc2cnn(C)c2)c2c(n1)c(C)nn2C(C)C", 8.03],
  ["CCOc1ncccc1-c1cc(NCc2ccc(C)nc2)c2c(n1)c(C)nn2C(C)C", 9.02],
  ["Cc1nn(C(C)C)c2c(NCc3cnn(C)c3)cc(N3CCN(C(C)(C)C)C3=O)nc12", 7.12],
  ["CCOc1ncccc1-c1cc(NCc2coc(C)n2)c2c(n1)c(C)nn2C(C)C", 9.37],
  ["CCOc1ncccc1-c1cc(NCc2ncc(C)s2)c2c(n1)c(C)nn2C(C)C", 10.15],
  ["Cc1nn(C(C)C)c2c(NCc3cnn(C)c3)cc(N3CCCC3=O)nc12", 8.44],
  ["CCOc1ncccc1-c1cc(NCc2cccnc2F)c2c(n1)c(C)nn2C(C)C", 9.66],
  ["COc1ncccc1CNc1cc(-c2ccnn2C)nc2c(C)nn(C(C)C)c12", 7.77]
]}

Ask: What value of pIC50 has been reported for the following compound? `CCOc1ncccc1-c1cc(NCc2cc(C)on2)c2c(n1)c(C)nn2C(C)C`
Reply: 9.96

Ask: What value of pIC50 has been reported for the following compound? `CCOc1ncccc1-c1cc(NCc2cc(OC)ncn2)c2c(n1)c(C)nn2C(C)C`
Reply: 9.29

Ask: What value of pIC50 has been reported for the following compound? `CCOc1ncccc1-c1cc(CCc2ncn(C)n2)c2c(n1)c(C)nn2C(C)C`
Reply: 8.41

----------
# experimental.system: PDE1B (Homo sapiens (Human), UniProt Q01064)
# assay.notes: PDE1 inhibition assay (PDE1B)
# Type: biochemical
# setup.conditions: 15 nM tritium labelled cAMP, 1 hr at room temperature, SPA beads; read-out: PDE1B, IC50
measurement.kind: pIC50
In simple prose, pIC50 is minus the logarithm base ten of a concentration in moles per litre.

{"columns": ["molecule", "pIC50"],
 "data": [
  ["CCOc1ncccc1-c1cc(NCc2cncc(OC)c2)c2c(n1)c(C)nn2C(C)C [Example 106]", 9.35],
  ["CCOc1ncccc1-c1cc(NCc2ncn(C)n2)c2c(n1)c(C)nn2C1COC1 [Example 163]", 7.85],
  ["CCN(C)c1ncccc1-c1cc(NCc2ccc(OC)cc2)c2c(n1)c(C)nn2C(C)C [Example 198]", 6.62],
  ["Cc1nn(C(C)C)c2c(NCc3cc[nH]n3)cc(-c3ccc[nH]c3=O)nc12 [Example 187]", 7.74],
  ["CCOc1ncccc1-c1cc(NCc2n[nH]c(C)n2)c2c(n1)c(C)nn2C(C)C [Example 55]", 9.29]
]}

Ask: // map CCOc1ncccc1-c1cc(NCc2cnn(C)c2)c2c(n1)c(C)nn2C [Example 28] to recorded pIC50 (system: PDE1B (Homo sapiens (Human), UniProt Q01064))
Reply: 7.07

Ask: // map Cc1nn(C(C)C)c2c(NCc3ncn(C)n3)cc(-c3ccc[nH]c3=O)nc12 [Example 186] to recorded pIC50 (system: PDE1B (Homo sapiens (Human), UniProt Q01064))
Reply: 7.82

Ask: // map CCOc1ncccc1-c1cc(NCc2nccnc2OC)c2c(n1)c(C)nn2C(C)C [Example 91] to recorded pIC50 (system: PDE1B (Homo sapiens (Human), UniProt Q01064))
Reply: 8.64

----------
# experimental.system: UniProt Q14123
# assay.notes: biochemical
# Assay type: biochemical
# setup.conditions: 15 nM tritium labelled cAMP, 1 hr at room temperature, SPA beads
In this section we review reported IC50 values for a set of compounds.
Please state the figure in nM; there is no need to write the unit.

# annotated cases, reported IC50 shown
{"columns": ["compound", "unit.string", "IC50"],
 "data": [
  ["CCOc1ncccc1-c1cc(NCc2ncn(C)n2)c2c(n1)c(C)nn2C1COC1", "nM", 120],
  ["CCOc1ncccc1-c1cc(NCc2ccc(OC)cn2)c2c(n1)c(C)nn2C(C)C", "nM", 100],
  ["CCOc1ncccc1-c1cc(NCc2cc(C)n(C)n2)c2c(cnn2C(C)C)n1", "nM", 70],
  ["CCCOc1ncccc1-c1cc(NCc2cnn(C)c2)c2c(n1)c(C)nn2C(C)C", "nM", 4.9]
]}

Ask: // map `CCOc1ncccc1-c1cc(SCc2cnn(C)c2)c2c(n1)c(C)nn2C(C)C` to recorded IC50 (system: UniProt Q14123)
Reply: 25

Ask: // map `CCOc1ncccc1-c1cc(NCc2cc(OC)ccn2)c2c(n1)c(C)nn2C(C)C` to recorded IC50 (system: UniProt Q14123)
Reply: 4.7

Ask: // map `CCOc1ncccc1-c1cc(NCc2ccncn2)c2c(n1)c(C)nn2C(C)C` to recorded IC50 (system: UniProt Q14123)
Reply: 140

Ask: // map CCCOc1ncccc1-c1cc(NCc2cc[nH]n2)c2c(n1)c(C)nn2C(C)CC (single isomer, unassigned) to recorded IC50 (system: UniProt Q14123)
Reply: 3.6

Ask: // map `CCOc1ncccc1-c1cc(NCc2nc(C)no2)c2c(n1)c(C)nn2C(C)C` to recorded IC50 (system: UniProt Q14123)
Reply: 31
